Where do these numbers come from? They come from patent US11981658B2.

biological target: EGFR L858R/C797S (Homo sapiens, UniProt P00533, C797S/L858R); test: Biochemical EGFR kinase inhibition assay (Lance Ultra TR-FRET), double mutant L858R/C797S; details: Km ATP; read-out: IC50 L858R/C797S (nM), Km ATP
Sequence (P00533 25-1210 C797S/L858R): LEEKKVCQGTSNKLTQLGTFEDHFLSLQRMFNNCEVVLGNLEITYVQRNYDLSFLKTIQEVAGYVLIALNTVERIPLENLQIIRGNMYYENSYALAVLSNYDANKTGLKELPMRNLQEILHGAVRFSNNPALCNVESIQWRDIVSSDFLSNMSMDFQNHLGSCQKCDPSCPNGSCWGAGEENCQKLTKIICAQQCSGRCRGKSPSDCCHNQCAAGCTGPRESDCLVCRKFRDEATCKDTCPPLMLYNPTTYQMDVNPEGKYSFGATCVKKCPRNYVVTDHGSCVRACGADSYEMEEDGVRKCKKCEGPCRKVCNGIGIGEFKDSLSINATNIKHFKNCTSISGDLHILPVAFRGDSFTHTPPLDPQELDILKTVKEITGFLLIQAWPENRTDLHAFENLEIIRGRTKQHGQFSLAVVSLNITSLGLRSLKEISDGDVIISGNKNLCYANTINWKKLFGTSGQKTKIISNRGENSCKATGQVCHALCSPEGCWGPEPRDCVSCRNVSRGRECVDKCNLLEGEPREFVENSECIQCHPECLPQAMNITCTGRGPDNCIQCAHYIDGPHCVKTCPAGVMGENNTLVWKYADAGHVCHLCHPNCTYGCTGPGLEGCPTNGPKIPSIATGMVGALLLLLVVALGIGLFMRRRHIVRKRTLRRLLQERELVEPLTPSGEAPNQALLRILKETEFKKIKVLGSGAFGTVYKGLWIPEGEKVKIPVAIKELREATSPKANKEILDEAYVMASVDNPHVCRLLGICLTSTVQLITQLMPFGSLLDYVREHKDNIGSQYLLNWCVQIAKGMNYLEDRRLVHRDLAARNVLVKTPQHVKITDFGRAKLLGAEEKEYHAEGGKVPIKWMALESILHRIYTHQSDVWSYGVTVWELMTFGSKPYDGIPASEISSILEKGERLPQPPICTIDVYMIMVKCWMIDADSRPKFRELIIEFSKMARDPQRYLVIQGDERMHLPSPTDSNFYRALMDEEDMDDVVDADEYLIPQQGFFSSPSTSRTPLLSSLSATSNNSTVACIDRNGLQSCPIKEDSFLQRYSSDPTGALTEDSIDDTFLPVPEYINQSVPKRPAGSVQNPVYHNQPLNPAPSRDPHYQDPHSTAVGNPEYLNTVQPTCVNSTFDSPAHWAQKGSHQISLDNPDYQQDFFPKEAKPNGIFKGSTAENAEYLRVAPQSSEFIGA
readout type: IC50 (nM)

* O=S(=O)(C1CC1)n1cc(-c2nccc(Nc3cc(N4C[C@@H]5[C@@H](CO)[C@@H]5C4)c(C#Cc4cnn(C(F)(F)F)c4)cn3)n2)cn1 | 173
* CC(=O)C1CCN(c2cc(Nc3ccnc(-c4cnn(S(=O)(=O)C5CC5)c4)n3)ncc2C#Cc2cnn(C(F)(F)F)c2)CC1 | 136
* CC1(CO)CCN(c2cc(Nc3ccnc(-c4cnn(S(=O)(=O)C5CC5)c4)n3)ncc2C#CC2(O)CCOC2)CC1 (stereo not shown) | 0.5
* CC1(O)CCN(c2cc(Nc3ccnc(-c4cnn(S(=O)(=O)C5CC5)c4)n3)ncc2C#CC2CC3CCC2O3)CC1 (stereo not shown) | 1.9
* CN(C)CCC1CCN(c2cc(Nc3ccnc(-c4cnn(S(=O)(=O)C5CC5)c4)n3)ncc2C#CC2CCO[C@H]2C(F)(F)F)CC1 (stereo partly shown) | 7.1
* CC1(C#Cc2cnc(Nc3ccnc(-c4cnn(S(=O)(=O)C5CC5)c4)n3)cc2N[C@H]2CC[C@@H](O)CC2)CC1 | 3.6
* O=S1(=O)CCC(C#Cc2cnc(Nc3ccnc(-c4cnn(S(=O)(=O)C5CC5)c4)n3)cc2NC2CCC(CO)CC2)C1 (stereo not shown) | 4.9
* CN1CCN(Cc2ccc(C#Cc3cnc(Nc4ccnc(-c5cnn(S(=O)(=O)C6CC6)c5)n4)cc3N3CCC(C)(O)CC3)cc2)CC1 | 0.7
* O=S(=O)(C1CC1)n1cc(-c2nccc(Nc3cc(NC[C@H]4CC[C@H](CO)CC4)c(C#Cc4cnn(CCF)c4)cn3)n2)cn1 | 37.9
* O=S(=O)(C1CC1)n1cc(-c2nccc(Nc3cc(NC4CCC(O)CC4)c(C#CC4CCOC4C(F)(F)F)cn3)n2)cn1 (stereo not shown) | 12.6
* CC1(CO)CCN(c2cc(Nc3ccnc(-c4cnn(S(=O)(=O)C5CC5)c4)n3)ncc2C#CC2(O)CCCOC2)CC1 (stereo not shown) | 1.5
* CC1(CO)CCN(c2cc(Nc3ccnc(-c4cnn(S(=O)(=O)C5CC5)c4)n3)ncc2C#CC2CCN(S(C)(=O)=O)C2)CC1 (stereo not shown) | 0.8
* O=S(=O)(C1CC1)n1cc(-c2nccc(Nc3cc(NC4CCC(CO)CC4)c(C#CC4CCOC4C(F)(F)F)cn3)n2)cn1 (stereo not shown) | 33.6

###

biological target: EGFR L858R/C797S (Homo sapiens, UniProt P00533, C797S/L858R); assay: Biochemical EGFR kinase inhibition assay (Lance Ultra TR-FRET), double mutant L858R/C797S; conditions: IC50 L858R/C797S (nM), 100 μM ATP
Param label: returns Y when IC50 < 30 nM, returns N otherwise, including exact equality.

• CC(C)(O)CC#Cc1cnc(Nc2ccnc(-c3cnn(S(=O)(=O)C4CC4)c3)n2)cc1N1CCC(C)(CO)CC1 = Y
• Cn1cc(C#Cc2cnc(Nc3ccnc(-c4cnn(S(=O)(=O)C5CC5)c4)n3)cc2N2CCC(O)CC2)cn1 = Y
• O=S(=O)(C1CC1)n1cc(-c2nccc(Nc3cc(NCC4CCC(O)CC4)c(C#CC4CCCO4)cn3)n2)cn1 (stereo not shown) = N
• CC1(CO)CCN(c2cc(Nc3ccnc(-c4cnn(S(=O)(=O)C5CC5)c4)n3)ncc2C#CC2CCN(S(C)(=O)=O)CC2)CC1 = Y
• Cn1cc(C#Cc2cnc(Nc3ccnc(-c4cnn(S(=O)(=O)C5CC5)c4)n3)cc2N2CCCC(CF)C2)cn1 (stereo not shown) = N
